Molecular target: cyclic nucleotide phosphodiesterase
Test: Phosphodiesterase inhibitory activity (cyclic AMP hydrolysis)
Conditions: read-out: IC50 (50% inhibition of cyclic nucleotide phosphodiesterase activity); cyclic AMP 0.10-1.0 μM, pH 7.4
pIC50: −log10 of the molar value.
Label rule, in plain words: pIC50 of 5 and up is met, under 5 is not met.

# input Check this compound for pIC50 at or above 5: CN1C(=O)COc2ccc(C3=NNC(=O)CC3)cc21 [Example 21]
# output not met

# input Reported pIC50 reaches at least 5 for O=C1CCC(c2ccc3c(c2)NC(=O)CS3)=NN1 [Example 53] ?
# output not met

# input API: above_or_equal(metric=pIC50, cutoff=5) for item CC1CC(=O)NN=C1c1ccc2c(c1)NC(=O)C(C)O2 (stereo not drawn) [Example 26]
# output met

# input Given Cc1cc2c(c(C3=NNC(=O)CC3)c1)OCC(=O)N2 [Example 38] , state whether its pIC50 is at least 5.
# output not met

# input Hi team, for Cc1cc(C2=NNC(=O)CC2)c2c(c1)N(C)C(=O)CO2 [Example 39] , is the recorded pIC50 at or above 5?
# output not met

Value source: patent US5081242A
